- Test system: L. major promastigote
- TEST: L. major promastigote assay
- Assay type: cell-based
- CONDITION LABEL: Leishmania major
Structures can show the parent of a compound that is named as a salt.
READOUT LABEL: pEC50
// pEC50: -log10(molar conc.)

Below: 3 compounds and their reported pEC50.
{"COMPOUND": "COc1ccc(Nc2ncnc3ccc(-c4ccc(S(=O)(=O)N5CCOCC5)cc4)cc23)cc1Cl [Compound 20d, Hydrochloride]", "TESTED SYSTEM": "L. major promastigote", "pEC50": 6.08}
{"COMPOUND": "O=S(=O)(c1ccc(-c2ccc3ncnc(Nc4ccc(OCc5cc(F)cc(F)c5F)c(Cl)c4)c3c2)cc1)N1CCOCC1 [Compound 20m, Hydrochloride]", "TESTED SYSTEM": "L. major promastigote", "pEC50": 5.52}
{"COMPOUND": "CN1CCCN(S(=O)(=O)c2ccc(-c3ccc4c(Nc5ccc(OCc6cccc(F)c6)c(Cl)c5)cnnc4c3)cc2)CC1 [NEU-1017]", "TESTED SYSTEM": "L. major promastigote", "pEC50": 5.19}

Please report the recorded pEC50 for O=S(=O)(c1ccc(-c2ccc3ncnc(Nc4ccc(OCc5cccc(F)c5)c(Cl)c4)c3c2)cc1)N1CCOCC1 [Compound 10a] . 5.89

Please report the recorded pEC50 for CN1CCCN(S(=O)(=O)c2ccc(-c3ccc4nccc(Nc5ccc(OCc6cccc(F)c6)c(Cl)c5)c4c3)cc2)CC1 [NEU-958] . 6.40

Please report the recorded pEC50 for CN1CCN(S(=O)(=O)c2ccc(-c3ccc4c(Nc5ccc(OCc6cccc(F)c6)c(Cl)c5)nncc4c3)cc2)CC1 [NEU-1041, Formic Acid] . 5.89

Please report the recorded pEC50 for CS(=O)(=O)c1cccc(-c2ccc3ncnc(Nc4ccc(OCc5cccc(F)c5)c(Cl)c4)c3c2)c1 [Compound 10u] . 5.46

Please report the recorded pEC50 for Fc1cccc(COc2ccc(Nc3ncnc4ccc(-c5ccc(N6CCOCC6)cc5)cc34)cc2Cl)c1 [Compound 23b] . 5.36

Please report the recorded pEC50 for CN1CCCN(S(=O)(=O)c2ccc(-c3ccc4ncnc(Nc5ccc(OCc6cccc(F)c6)c(Cl)c5)c4c3)cc2)CC1 [Compound 10q] . 5.44

###

- System: HepG2 cells
- TEST: HepG2 cell toxicity (MTT) assay
- Format: cell-based
- CONDITION LABEL: Table 13; read-out: HepG2 TC50
Threshold 10 µM. CC50 below it: criterion met. CC50 at it or above: criterion not met.

Solved cases below.
{"MOL": "CN1CCCN(S(=O)(=O)c2ccc(-c3ccc4c(Nc5ccc(OCc6cccc(F)c6)c(Cl)c5)ccnc4c3)cc2)CC1", "QUALITATIVE LABEL": "criterion met"}
{"MOL": "CN1CCN(S(=O)(=O)c2ccc(-c3ccc4nccc(Nc5ccc(OCc6cccc(F)c6)c(Cl)c5)c4c3)cc2)CC1", "QUALITATIVE LABEL": "criterion met"}
{"MOL": "CN1CCCN(S(=O)(=O)c2ccc(-c3ccc4cnnc(Nc5ccc(OCc6cccc(F)c6)c(Cl)c5)c4c3)cc2)CC1", "QUALITATIVE LABEL": "criterion not met"}
{"MOL": "Fc1cccc(COc2ccc(Nc3cnnc4cc(-c5cccc(N6CCOCC6)c5)ccc34)cc2Cl)c1", "QUALITATIVE LABEL": "criterion not met"}

Answer whether the molecule `CN1CCCN(S(=O)(=O)c2ccc(-c3ccc4nccc(Nc5ccc(OCc6cccc(F)c6)c(Cl)c5)c4c3)cc2)CC1` has CC50 strictly less than 10 µM criterion met

Answer whether the molecule `O=S(=O)(c1ccc(-c2ccc3nncc(Nc4ccc(OCc5ccccc5)c(Cl)c4)c3c2)cc1)N1CCOCC1` has CC50 strictly less than 10 µM criterion not met
